Measured IC50 accompanies every entry in the list below.
- Tested target: human TLR8 (Homo sapiens)
- Sequence (Q9NR97 27-1041): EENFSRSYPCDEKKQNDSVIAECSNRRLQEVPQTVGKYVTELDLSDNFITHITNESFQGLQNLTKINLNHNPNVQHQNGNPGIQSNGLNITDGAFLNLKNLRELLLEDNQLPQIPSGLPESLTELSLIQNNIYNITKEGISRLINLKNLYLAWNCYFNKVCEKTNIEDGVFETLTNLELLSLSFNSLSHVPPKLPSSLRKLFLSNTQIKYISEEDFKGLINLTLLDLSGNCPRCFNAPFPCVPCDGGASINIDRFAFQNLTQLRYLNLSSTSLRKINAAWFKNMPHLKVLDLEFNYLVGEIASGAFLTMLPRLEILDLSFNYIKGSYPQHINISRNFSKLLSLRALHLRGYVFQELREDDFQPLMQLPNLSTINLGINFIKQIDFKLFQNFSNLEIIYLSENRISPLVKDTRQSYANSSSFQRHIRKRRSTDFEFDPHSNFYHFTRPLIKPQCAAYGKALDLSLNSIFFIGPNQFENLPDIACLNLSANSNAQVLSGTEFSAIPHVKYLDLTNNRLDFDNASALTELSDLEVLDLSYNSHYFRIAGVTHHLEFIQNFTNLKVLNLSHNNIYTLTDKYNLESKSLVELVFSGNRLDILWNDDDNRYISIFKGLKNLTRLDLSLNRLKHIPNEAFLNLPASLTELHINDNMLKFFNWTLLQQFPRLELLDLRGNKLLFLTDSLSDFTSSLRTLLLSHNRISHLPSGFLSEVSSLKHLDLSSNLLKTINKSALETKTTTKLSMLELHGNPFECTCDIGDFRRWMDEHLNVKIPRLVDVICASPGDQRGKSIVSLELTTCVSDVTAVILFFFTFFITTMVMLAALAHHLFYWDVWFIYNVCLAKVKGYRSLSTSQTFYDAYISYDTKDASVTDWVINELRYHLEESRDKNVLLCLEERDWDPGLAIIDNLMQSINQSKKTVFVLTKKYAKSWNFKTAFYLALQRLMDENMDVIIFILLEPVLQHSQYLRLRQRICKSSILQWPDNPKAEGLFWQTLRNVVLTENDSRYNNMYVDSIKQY
- Assay: TLR8 inhibition reporter assay (HEK-Blue cells, SEAP reporter, R848 stimulation)
- Condition notes: HEK-Blue cells overexpressing human TLR8, R848 15.9 μM
Please state the figure in nM; there is no need to write the unit.

{"Molecule": "CNCCN1CCC(c2cc3c(C(C)C)c(-c4ccc(OC)c(OC)c4)[nH]c3cc2C)CC1 [Example 207]", "Reported property": "IC50", "Assay value": 46900}

stdin: Return reported IC50; argument: COc1ccc(-c2[nH]c3ccc(C4CCN(C(=O)CN5CCCC(CO)C5)CC4)cc3c2C(C)C)cc1OC (stereo not shown) [Example 226]
stdout: 17

stdin: Return reported IC50; argument: COc1ccc(-c2[nH]c3ccc(C4CCN(C(=O)CN5CCC(CO)CC5)CC4)cc3c2C(C)C)cc1OC [Example 243]
stdout: 16

stdin: Return reported IC50; argument: CCN(CC)C(=O)C1CCCN(CC(=O)N2CCC(c3ccc4[nH]c(-c5ccc(OC)c(OC)c5)c(CC(F)(F)F)c4c3)CC2)C1 (stereo not shown) [Example 421]
stdout: 71

stdin: Return reported IC50; argument: CNC(=O)CN1CCC(c2ccc3[nH]c(-c4ccc(OC)c(OC)c4)c(CC(F)F)c3c2)CC1 [Example 401]
stdout: 128

stdin: Return reported IC50; argument: CCc1c(-c2ccc(OC)c(OC)c2)[nH]c2ccc(C3CCN(C4CCN(Cc5ccn(C)n5)CC4)CC3)cc12 [Example 133]
stdout: 160

stdin: Return reported IC50; argument: COc1ccc(-c2[nH]c3ccc(C4CCN(CC(=O)NCCNC(C)=O)CC4)cc3c2CC(F)(F)F)cc1OC [Example 379]
stdout: 39
